test system: DU-145; test: Cytotoxicity against human DU145 cells assessed as growth inhibition after 24 hrs by MTT assay; assay type: functional, cell-based; conditions: DU-145, 24 h
Lab note - cut at 40 µM for IC50: 1 if strictly below, -1 if not.

> print(dat)
                                    molecule  label.value
 1  CCOC(=O)C1=Cc2ccccc2OC1(OCc1cn(CC(=O)Nc2cccc(F)c2)nn1)C(F)(F)F (stereo not given)           -1
 2  CCOC(=O)C1=Cc2ccccc2OC1(OCc1cn(CC(=O)Nc2ccc(C)cc2)nn1)C(F)(F)F (stereo not given)           -1
 3  CCOC(=O)C1=Cc2ccccc2OC1(OCc1cn(-c2ccccc2)nn1)C(F)(F)F (stereo not given)           -1
 4  CCCCCCCCn1cc(COC2(C(F)(F)F)Oc3ccccc3C=C2C(=O)OCC)nn1 (stereo not given)           -1
 5  O=C(O)C1=Cc2ccccc2OC1(OCc1cc(-c2ccc([N+](=O)[O-])cc2)no1)C(F)(F)F (stereo not given)           -1
 6  CCOC(=O)C1=Cc2ccccc2OC1(OCc1cc(-c2ccc(Cl)cc2)no1)C(F)(F)F (stereo not given)            1
 7  CCOC(=O)C1=Cc2ccccc2OC1(OCc1cn(-c2ccc(F)c([N+](=O)[O-])c2)nn1)C(F)(F)F (stereo not given)            1
 8  CCOC(=O)C1=Cc2ccccc2OC1(OCc1cc(-c2ccc(F)cc2)no1)C(F)(F)F (stereo not given)           -1
 9  CCOC(=O)C1=Cc2ccccc2OC1(OCc1cn(-c2ccc(C)cc2)nn1)C(F)(F)F (stereo not given)            1
10  COc1ccc(-c2cc(COC3(C(F)(F)F)Oc4ccccc4C=C3C(=O)O)on2)cc1 (stereo not given)           -1
11  O=C(O)C1=Cc2ccccc2OC1(OCc1cc(-c2ccc(F)cc2)no1)C(F)(F)F (stereo not given)           -1
12  CCOC(=O)C1=Cc2ccccc2OC1(OCc1cc(-c2ccc(OC)cc2)no1)C(F)(F)F (stereo not given)           -1
13  O=C(O)C1=Cc2ccccc2OC1(OCc1cc(-c2ccc3ccccc3c2)no1)C(F)(F)F (stereo not given)           -1
14  CCOC(=O)C1=Cc2ccccc2OC1(OCc1cc(-c2ccc(Br)cc2)no1)C(F)(F)F (stereo not given)           -1
15  CCOC(=O)C1=Cc2ccccc2OC1(OCc1cn(-c2ccc(F)c(Cl)c2)nn1)C(F)(F)F (stereo not given)            1
16  O=C(O)C1=Cc2ccccc2OC1(OCc1cc(-c2ccc(F)cc2F)no1)C(F)(F)F (stereo not given)           -1
17  CCOC(=O)C1=Cc2ccccc2OC1(OCc1cc(-c2ccc(F)cc2F)no1)C(F)(F)F (stereo not given)           -1
18  CCOC(=O)C1=Cc2ccccc2OC1(OCc1cn(-c2ccc([N+](=O)[O-])cc2)nn1)C(F)(F)F (stereo not given)           -1
19  CCOC(=O)C1=Cc2ccccc2OC1(OCc1cn(CC(=O)Nc2ccc(I)cc2Cl)nn1)C(F)(F)F (stereo not given)            1
20  CCOC(=O)C1=Cc2ccccc2OC1(OCc1cc(-c2ccc3ccccc3c2)no1)C(F)(F)F (stereo not given)           -1
21  O=C(O)C1=Cc2ccccc2OC1(OCc1cc(-c2cccc(C(F)(F)F)c2)no1)C(F)(F)F (stereo not given)           -1
22  CCOC(=O)C1=Cc2ccccc2OC1(OCc1cc(-c2ccc([N+](=O)[O-])cc2)no1)C(F)(F)F (stereo not given)           -1
23  CCOC(=O)C1=Cc2ccccc2OC1(OCc1cn(CC(=O)Nc2ccccc2Br)nn1)C(F)(F)F (stereo not given)           -1
24  CCOC(=O)C1=Cc2ccccc2OC1(OCc1cn(-c2cccc(C(F)(F)F)c2)nn1)C(F)(F)F (stereo not given)           -1
25  CCOC(=O)C1=Cc2ccccc2OC1(OCc1cn(CC(=O)Nc2cccc(Cl)c2)nn1)C(F)(F)F (stereo not given)            1
